B1: HDV Ribozyme (parent)
chain: GGCCGGCAUGGUCCCAGCCUCCUCGCUGGCGCCGGCUGGGCAACAUUCCGAGGGGACCGUCCCCUCGGUAAUGGCGAAUGGGACCCA

- Variants of: B1
- Test protocol: self-cleavage, relative activity (ratio to wild type); higher = more cleavage; co-transcriptional
# cutoff 0.3 applies to self-cleavage; >= gives y, < gives n

These recorded examples may help you get a feel for the data.
C41G C61A
y
C14U A51C
y
C7A C64A
n
U46A G52A
y
C48A C66A
y
G11U G80U
n
G1C C49A
n
G38A U79G
n
C33U C64G
y
G28U C75U
n

Tell me whether self-cleavage is at least 0.3 here: U37A U47G
n

Answer whether self-cleavage of C22G G29A is greater than or equal to 0.3.
n

Tell me whether self-cleavage is at least 0.3 here: G1U A71U
y

Identify whether the reported self-cleavage of the following variant is 0.3 or greater: C15A G81A
y

Evaluate G1A C49G : self-cleavage at minimum 0.3?
n

Reported self-cleavage at or above 0.3? A43C C61U
y

I'd appreciate it if you could say whether C7G U46G has self-cleavage at least equal to 0.3.
n

Could you verify whether the entry A16C G59A shows self-cleavage of no less than 0.3?
y

Is the recorded value of self-cleavage equal to or greater than 0.3 for this variant? U27G G29U
y

Has G67U A78G a recorded self-cleavage greater than or equal to 0.3?
y
